Source listed as paper PMC2362650.

assayComment: Plasma and urine pharmacokinetics (HPLC-UV) in patients after 60-min IV infusion
Type: in vivo, human
conditionDetails: human, plasma, intravenous, 20 mg, patient no. 20; 20 mg m-2; day 1 course 1; two-compartment model
measuredMetric: AUC

compound="C[C@@](O)(/C=C/[C@H]1CC=CC(=O)O1)[C@@H](C[C@@H](O)\\C=C/C=C\\C=C\\CO)OP(=O)(O)O [fostriecin]" measuredmetric=AUC measured="9960 ng·h/mL"
